Counter-ions that a name gives are not always drawn.
Parameter: melting point

Molecule	melting point
CN1CCC(Oc2ccc(Cl)c(Cl)c2)c2ccc(-c3cccnn3)cc2C1 (centres unmarked) (as salt: tartrate)	102 to 104 °C
CN1CCC(Oc2cc(F)ccc2F)c2ccc(-c3cccnn3)cc2C1 (centres unmarked) (as salt: tartrate)	102 to 104 °C
CN1CCC(Oc2ccc(C#N)cc2)c2ccc(-c3cccnn3)cc2C1 (centres unmarked) (as salt: tartrate) [Example 53]	110 to 112 °C
CN1CCC(Oc2cccc(C#N)c2)c2ccc(-c3cccnn3)cc2C1 (centres unmarked) (as salt: tartrate)	113 to 115 °C

stdin: Sample CN1CCC(Oc2ccc(F)c(F)c2)c2ccc(-c3cccnn3)cc2C1 (centres unmarked) (as salt: tartrate) — what was its melting point?
stdout: 100 to 102 °C

Values compiled from patent US8987252B2.
